So I've got a bunch of binders here, and I need their glycan array binding signal (z-score) values.
# tested-system: Fuc(a1-2)Gal(b1-4)GlcNAc(b1-3)GalNAc
# method-description: glycan array binding signal (z-score within array); higher = stronger binding
# recorded-conditions: glycan notation: IUPAC condensed, linker removed
About 410 targets per protein were measured; listed, in parts, are those with the strongest signals and a random draw of the rest.
Numbers only.

Consider the following illustrative entries.
# binder, glycan array binding signal (z-score)
data = [
    ("Tamarinin (protein) CDDSARAGNIVVYWGQGGSDNSEGSLKEACKSGHYNMIVLQQLIVYDDGRDPDLNLGAHCSDCTKLEEQIKYCQNKDIKILLQIGQVVPTQEDVKDVTKNLSEYLLKNFFSGKSGPLGEVYLNGIDIASVPEGNNLKFDELVEALNDSSTERRIYLSASPLCVYPDYYLNKAIQTEKLDFLFVQFFYQNPCIYTEGNPENLFEAMKTWTKNVPESMIFMALPATPNLDGYIPPRVLNKEILPAVSEASNFAGVMIFDRYFDRFRKYSSKIK", 0.146),
    ("Jacalin (Artocarpus integrifolia) (protein) MAYSSLLSLSVLALLFSISSADTRKWFLANGINQNPIGIIEAAVGVSEDLLNLNGMEAKNDEQSGISQTVIVGPWGAKVSTSSNGKAFDDGAFTGIREINLSYNKETAIGDFQVVYDLNGSPYVGQNHKSFITGFTPVKISLDFPSEYIMEVSGYTGNVSGYVVVRSLTFKTNKKTYGPYGVTSGTPFNLPIENGLIVGFKGSIGYWLDYFSMYLSL", 0.829),
    ("rMpL (Macrolepiota procera) (protein) MSTQVSSGRTYKITNVIAGTVIDLSGEDNKSIIGYPYHSGKNQQWTFNWTGKAWTLRSASSGSYLGIEGTPAGGTRLVAVNDPFEWHIWRDEANENAFRIFVPFTNYNLDLSGYGDTTPGTPVQLWWTWEGLHQTWTIDRP", -0.301),
    ("FGF1 (Homo sapiens), P05230 (protein) MAEGEITTFTALTEKFNLPPGNYKKPKLLYSNGGHFLRILPDGTVDGTRDRSDQHIQLQLSAESVGEVYIKSTETGQYLAMTDGLLYGSQTPNEECLFLERLEENHYNTYISKHAEKNWFVGLKKNGSCKRGPRTHYGQAILFLPLPASSED", 1.33),
    ("Clec18A (Homo sapiens) (protein) PFHTCDLRIDGDCFMVSSEADTYYRARMKCQRKGGVLAQIKRQKVQDILAFYLGRLETTNEVIDSDFETRNFWIGLTYKTAKDSFRWATGEHQAFTSFAFGQPDNHGFGNCVELQASAAFNWNDQRCKTRNRYICQ", -0.366),
]

Attention now shifts to the item below.
Tell me the measured glycan array binding signal (z-score) of DrGal9 (Danio rerio) (protein) MAFYQQPPYYNPRIPFSGPIQGGLQDGKSIIISGRVLPGANRFHVNLQCGSHSEANVALHFNPRYEDTDYVVNNSYLNRTWGSEERKYESPFAQGQTFTLQILVAQDKYKISTNGRHFMDYKHRIPFTQVDTVAVEGMVEVNSVAFQNPAGFIPPQAGYAPQYAVPPGCGFPAFPSAPNYTIPHKTVMNGGLHPGKNIVINGVVNPNAKSIIFNLCYRSGIAFHYNPRFDENVVVRNTNQMEKWGAEERFGGLPFHKGQPFQVTISCNPQHYNVFVNGKQEHTYKHRYTKLNDIDILEICGDLQLTSVQA , please.
-0.32
